Molecular target: UniProt:Q9EQZ6
Assay: Epac activation assay, full length Epac2
Format: biochemical
Design: made in house
Settings: 20 μM compound
parameter_measured: kobs (s⁻¹)
Numbers only here, please. The scale is s⁻¹.

Req: Which kobs is listed for Nc1ncnc2c1nc(SCc1ccccc1)n2[C@@H]1O[C@@H]2CO[P@](O)(=S)O[C@H]2[C@H]1O [S-220, Sp-8-BnT-cAMPS] ?
Resp: 0.00149

Req: Which kobs is listed for COC1C2OP(=O)(O)OCC2OC1n1c(Sc2ccc(Cl)cc2)nc2c(N)ncnc21 [D-007, 8-pCPT-2′-O-Me-cAMP, reference compound] ?
Resp: 5.69e-05

Req: Which kobs is listed for Nc1ncnc2c1ncn2[C@@H]1O[C@@H]2COP(=O)(O)O[C@H]2[C@H]1O [cAMP, reference compound] ?
Resp: 0.000116

Req: Which kobs is listed for Cc1ccc(CSc2nc3c(N)ncnc3n2[C@@H]2O[C@@H]3CO[P@](O)(=S)O[C@H]3[C@H]2O)cc1 [S-230, Sp-8-pMeBnT-cAMPS] ?
Resp: 0.000358

###

Molecular target: Epac2^Δ280 (Mus musculus)
Construct: made in house
Sequence (Q9EQZ6 299-1011, stated change not applied): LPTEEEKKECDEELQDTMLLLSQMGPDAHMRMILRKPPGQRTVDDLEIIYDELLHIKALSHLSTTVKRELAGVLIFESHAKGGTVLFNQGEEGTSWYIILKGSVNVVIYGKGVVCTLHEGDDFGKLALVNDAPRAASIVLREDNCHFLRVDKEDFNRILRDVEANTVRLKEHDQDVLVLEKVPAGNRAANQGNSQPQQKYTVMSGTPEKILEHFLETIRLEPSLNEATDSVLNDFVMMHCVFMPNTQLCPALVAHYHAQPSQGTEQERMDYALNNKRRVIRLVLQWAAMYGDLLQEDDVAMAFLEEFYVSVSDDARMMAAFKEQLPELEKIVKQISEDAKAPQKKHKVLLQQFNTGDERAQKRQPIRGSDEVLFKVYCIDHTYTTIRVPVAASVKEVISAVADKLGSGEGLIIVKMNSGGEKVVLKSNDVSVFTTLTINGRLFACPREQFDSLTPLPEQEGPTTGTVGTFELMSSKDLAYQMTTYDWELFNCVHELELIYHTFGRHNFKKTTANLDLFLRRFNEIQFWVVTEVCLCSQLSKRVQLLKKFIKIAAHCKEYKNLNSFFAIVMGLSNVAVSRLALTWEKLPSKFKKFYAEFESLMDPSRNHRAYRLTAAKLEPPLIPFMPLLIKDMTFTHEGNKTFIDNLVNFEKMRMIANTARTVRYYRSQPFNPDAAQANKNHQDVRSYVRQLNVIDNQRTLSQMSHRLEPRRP
Test: Epac activation assay (Rap1B•mGDP fluorescence nucleotide exchange), Epac2^Δ280
Format: biochemical
Conditions: Epac2^Δ280; maximal activity relative to cAMP
Readings of Rel. kmax for the listed compounds
# respond with the number and nothing more

compound: Nc1ncnc2c1ncn2[C@@H]1O[C@@H]2COP(O)(=S)O[C@H]2[C@H]1O (stereo partly drawn)
parameter_measured: Rel. kmax
numeric_result: 0.2

compound: CO[C@@H]1[C@@H]2OP(=O)(O)OC[C@H]2O[C@H]1n1c(O)nc2c(N)ncnc21
parameter_measured: Rel. kmax
numeric_result: 0.5

compound: Nc1ncnc2c1nc(OCc1ccccc1)n2[C@@H]1O[C@@H]2CO[P@](O)(=S)O[C@H]2[C@H]1O
parameter_measured: Rel. kmax
numeric_result: 4.8

compound: CCCCCCNc1nc2c(N)ncnc2n1[C@@H]1O[C@@H]2COP(=O)(O)OC2[C@@H]1O (stereo partly drawn)
parameter_measured: Rel. kmax
numeric_result: 2.0

compound: CCNc1nc2c(N)ncnc2n1[C@@H]1O[C@@H]2CO[P@](O)(=S)O[C@H]2[C@H]1O
parameter_measured: Rel. kmax
numeric_result: 5.4

Req: Which Rel. kmax is listed for Nc1ncnc2c1nc(SCCc1ccccc1)n2[C@@H]1O[C@@H]2CO[P@](O)(=S)O[C@H]2[C@H]1O ?
Resp: 0.4

Req: Which Rel. kmax is listed for CO[C@@H]1[C@@H]2OP(=O)(O)OC[C@H]2O[C@H]1n1c(Sc2ccc(O)cc2)nc2c(N)ncnc21 ?
Resp: 2.2

Req: Which Rel. kmax is listed for COc1nc2c(N)ncnc2n1[C@@H]1O[C@@H]2CO[P@](O)(=S)O[C@H]2[C@H]1O ?
Resp: 7.3

Req: Which Rel. kmax is listed for Nc1ncnc2c1nc(Sc1ccc(Cl)cc1)n2[C@@H]1O[C@@H]2COP(=O)(O)O[C@H]2[C@H]1O ?
Resp: 0.5

Req: Which Rel. kmax is listed for Nc1ncnc2c1nc(N1CCCCC1)n2[C@@H]1O[C@@H]2COP(=O)(O)O[C@H]2[C@H]1O ?
Resp: 3.8

Req: Which Rel. kmax is listed for Nc1ncnc2c1nc(N1CCOCC1)n2[C@@H]1O[C@@H]2COP(=O)(O)O[C@H]2[C@H]1O ?
Resp: 3.8

Req: Which Rel. kmax is listed for CNc1nc2c(N)ncnc2n1[C@@H]1O[C@@H]2CO[P@](O)(=S)O[C@H]2[C@H]1OC ?
Resp: 0.7

Req: Which Rel. kmax is listed for CNc1nc2c(N)ncnc2n1[C@@H]1O[C@@H]2COP(=O)(O)O[C@H]2[C@H]1O ?
Resp: 3.3

Req: Which Rel. kmax is listed for O=C(Nc1ncnc2c1ncn2[C@@H]1O[C@@H]2COP(=O)(O)O[C@H]2[C@H]1O)c1ccccc1 ?
Resp: 0.1

Req: Which Rel. kmax is listed for Cc1ccc(CSc2nc3c(N)ncnc3n2[C@@H]2O[C@@H]3CO[P@](O)(=S)O[C@H]3[C@H]2O)cc1 ?
Resp: 6.4

Req: Which Rel. kmax is listed for Nc1ncnc2c1nc(Br)n2[C@@H]1O[C@@H]2COP(=O)(O)O[C@H]2[C@H]1Cl ?
Resp: 0.9

Req: Which Rel. kmax is listed for Nc1ncnc2c1ncn2[C@@H]1O[C@@H]2COP(=O)(O)O[C@H]2[C@H]1N ?
Resp: 0.9

Req: Which Rel. kmax is listed for Nc1ncnc2c1nc(NCc1ccccc1)n2[C@@H]1O[C@@H]2COP(=O)(O)O[C@H]2[C@H]1O ?
Resp: 1.5

Req: Which Rel. kmax is listed for CSc1nc2c(N)ncnc2n1[C@@H]1O[C@@H]2COP(=O)(O)O[C@H]2[C@H]1O ?
Resp: 2.0

###

Target: Epac1 (Homo sapiens)
Construct: made in house
Sequence (O95398 192-923): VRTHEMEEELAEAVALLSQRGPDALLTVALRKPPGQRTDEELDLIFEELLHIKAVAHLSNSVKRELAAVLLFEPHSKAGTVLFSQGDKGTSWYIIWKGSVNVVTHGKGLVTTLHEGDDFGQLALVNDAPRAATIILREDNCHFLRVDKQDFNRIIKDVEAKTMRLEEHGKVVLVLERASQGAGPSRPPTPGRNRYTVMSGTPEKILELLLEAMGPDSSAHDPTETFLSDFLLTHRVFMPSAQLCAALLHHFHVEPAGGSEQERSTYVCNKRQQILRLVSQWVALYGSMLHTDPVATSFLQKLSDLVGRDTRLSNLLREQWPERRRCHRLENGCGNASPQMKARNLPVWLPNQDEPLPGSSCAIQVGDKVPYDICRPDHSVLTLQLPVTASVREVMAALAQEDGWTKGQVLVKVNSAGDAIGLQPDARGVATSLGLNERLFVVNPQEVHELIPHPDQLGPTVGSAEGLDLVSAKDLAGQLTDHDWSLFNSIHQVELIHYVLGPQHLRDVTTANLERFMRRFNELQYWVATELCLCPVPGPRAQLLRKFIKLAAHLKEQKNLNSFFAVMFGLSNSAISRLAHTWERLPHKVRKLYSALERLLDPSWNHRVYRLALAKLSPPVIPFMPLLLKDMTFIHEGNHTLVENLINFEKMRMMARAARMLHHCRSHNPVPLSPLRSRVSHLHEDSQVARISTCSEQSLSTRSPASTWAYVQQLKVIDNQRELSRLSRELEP
Experiment: Epac activation assay, Epac1
Assay type: biochemical
Settings: Epac1
parameter_measured: AC50 (µM)
Numbers only here, please. The scale is µM.

Here's what some known entries look like.
molecule: Nc1ncnc2c1nc(O)n2[C@@H]1O[C@@H]2CO[P@](O)(=S)O[C@H]2[C@H]1O
AC50 / µM: 80
--
molecule: Nc1ncnc2c1nc(Br)n2[C@@H]1O[C@@H]2CO[P@](O)(=S)O[C@H]2[C@H]1F
AC50 / µM: 75

Req: Which AC50 is listed for CO[C@H]1C2OP(=O)(O)OC[C@H]2O[C@H]1n1c(Br)nc2c(N)ncnc21 (some centres unmarked) ?
Resp: 35

Req: Which AC50 is listed for Nc1ncnc2c1nc([Se]Cc1ccccc1)n2[C@@H]1O[C@@H]2COP(=O)(O)O[C@H]2[C@H]1OCc1ccccc1 ?
Resp: 38

Req: Which AC50 is listed for CNc1nc2c(N)ncnc2n1[C@@H]1O[C@@H]2CO[P@](O)(=S)O[C@H]2[C@H]1Cl ?
Resp: 120

Req: Which AC50 is listed for Nc1ncnc2c1nc(Br)n2[C@@H]1O[C@@H]2COP(=O)(O)O[C@H]2[C@H]1F ?
Resp: 100

Req: Which AC50 is listed for Nc1ncnc2c1nc(SCc1ccccc1)n2[C@@H]1O[C@@H]2CO[P@](O)(=S)O[C@H]2[C@H]1F ?
Resp: 60

Req: Which AC50 is listed for Nc1ncnc2c1nc(NC1CCCCC1)n2[C@@H]1O[C@@H]2COP(=O)(O)O[C@H]2[C@H]1O ?
Resp: 50

Req: Which AC50 is listed for Nc1ncnc2c1nc(Sc1ccc(Cl)cc1)n2[C@@H]1O[C@@H]2COP([O-])(=S)O[C@H]2[C@H]1O.[Na+] (some centres unmarked) ?
Resp: 2.2

Req: Which AC50 is listed for Nc1ncnc2c1nc(SCc1ccccc1)n2[C@@H]1O[C@@H]2CO[P@](O)(=S)O[C@H]2[C@H]1O ?
Resp: 13

Req: Which AC50 is listed for Nc1ncnc2c1nc(SCc1ccccc1Cl)n2[C@@H]1O[C@@H]2CO[P@](O)(=S)O[C@H]2[C@H]1O ?
Resp: 16

Req: Which AC50 is listed for CNc1nc2c(N)ncnc2n1[C@H]1C[C@@H]2O[P@@](O)(=S)OC[C@H]2O1 ?
Resp: 320

Req: Which AC50 is listed for CSc1nc2c(N)ncnc2n1[C@@H]1O[C@@H]2COP(=O)(O)O[C@H]2[C@H]1SC ?
Resp: 17

Req: Which AC50 is listed for Nc1ncnc2c1ncn2[C@@H]1O[C@@H]2COP(=O)(O)O[C@H]2[C@H]1N ?
Resp: 80

###

Biological target: Epac1 (Homo sapiens)
Construct: made in house
Experiment: Epac activation assay, Epac1
Format: biochemical
Settings: Epac1; maximal activity relative to cAMP
Readings of Rel. kmax for the listed molecules
# respond with the number and nothing more

Here's what some known entries look like.
molecule: Nc1ncnc2c1nc(SCc1ccccc1)n2[C@H]1C[C@@H]2O[P@@](O)(=S)OC[C@H]2O1 [S-221, Sp-8-BnT-2′-dcAMPS]
system_under_test: Epac1 (Homo sapiens)
numeric_result: 0.06
//
molecule: Nc1ncnc2c1nc(SCCc1ccccc1)n2[C@@H]1O[C@@H]2CO[P@](O)(=S)O[C@H]2[C@H]1O [S-190, Sp-8-PheET-cAMPS]
system_under_test: Epac1 (Homo sapiens)
numeric_result: 0.2
//
molecule: Nc1ncnc2c1nc(SCc1ccccc1)n2[C@@H]1O[C@@H]2CO[P@](O)(=S)O[C@H]2[C@H]1F [S-222, Sp-8-BnT-2′-F-cAMPS]
system_under_test: Epac1 (Homo sapiens)
numeric_result: 0.09
//
molecule: Nc1ncnc2c1ncn2[C@@H]1O[C@@H]2COP(=O)(O)O[C@H]2[C@H]1OCc1ccccc1 [Z-008, 2′-O-Bn-cAMP]
system_under_test: Epac1 (Homo sapiens)
numeric_result: 1.5
//
molecule: CNc1nc2c(N)ncnc2n1[C@@H]1O[C@@H]2CO[P@](O)(=S)O[C@H]2[C@H]1O [S-030, Sp-8-MeA-cAMPS]
system_under_test: Epac1 (Homo sapiens)
numeric_result: 1.4

Req: Which Rel. kmax is listed for CNc1nc2c(N)ncnc2n1[C@H]1C[C@@H]2O[P@@](O)(=S)OC[C@H]2O1 [S-031, Sp-8-MeA-2′-dcAMPS] ?
Resp: 0.1
